assay: photocatalytic hydrogen evolution rate (per 5 mg catalyst); higher = more photocatalytic H2 evolution; extreme values may be limits of the assay; details: catalyst mass (mg): 5; Pt cocatalyst (wt%): 3; sacrificial medium: triethylamine/methanol/water 1:1:1;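 further: aromatic molecules in triethylamine/methanol/water with Pt photoreduced in situ, irradiated 3 h under a 1 sun AM 1.5G solar simulator (350–1000 nm), H2 quantified by headspace gas chromatography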;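 further: listed molecule itself used as the photocatalyst at 5 mg per vial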
Observed property: photocatalytic hydrogen evolution rate (µmol/h)

>  <Entry smiles>
N#Cc1cccnc1Br

>  <Observed property>
photocatalytic hydrogen evolution rate

>  <Display unit>
µmol/h

>  <Test result>
0

$$$$
>  <Entry smiles>
c1ccc(-c2ccc(-c3ccc(-c4ccc(-c5ccccc5)cc4)cc3)cc2)cc1

>  <Observed property>
photocatalytic hydrogen evolution rate

>  <Display unit>
µmol/h

>  <Test result>
0

$$$$
>  <Entry smiles>
O=C1c2cccc([N+](=O)[O-])c2C(=O)c2c1cccc2[N+](=O)[O-]

>  <Observed property>
photocatalytic hydrogen evolution rate

>  <Display unit>
µmol/h

>  <Test result>
0

$$$$
>  <Entry smiles>
c1ccc(Nc2cc(Nc3ccccc3)cc(Nc3ccccc3)c2)cc1

>  <Observed property>
photocatalytic hydrogen evolution rate

>  <Display unit>
µmol/h

>  <Test result>
0

$$$$
>  <Entry smiles>
CC(=O)c1ccc([N+](=O)[O-])cc1

>  <Observed property>
photocatalytic hydrogen evolution rate

>  <Display unit>
µmol/h

>  <Test result>
0

$$$$
>  <Entry smiles>
C(=C\c1ccccc1)/c1ccccc1

>  <Observed property>
photocatalytic hydrogen evolution rate

>  <Display unit>
µmol/h

>  <Test result>
0

$$$$
>  <Entry smiles>
c1ccc2cc3cc4ccccc4cc3cc2c1

>  <Observed property>
photocatalytic hydrogen evolution rate

>  <Display unit>
µmol/h

>  <Test result>
0.162

$$$$
>  <Entry smiles>
c1ccc2c(c1)C1c3ccccc3C2c2ccccc21

>  <Observed property>
photocatalytic hydrogen evolution rate

>  <Display unit>
µmol/h

>  <Test result>
0.0408

$$$$

(a) N#Cc1ccc(C=O)s1
(b) Cc1ncc[nH]1
(c) O=Cc1ccc(N2CCS(=O)(=O)CC2)cc1
(d) O=c1c2ccccc2oc2ccccc12
(e) O=Cc1ccccc1P(c1ccccc1)c1ccccc1
Request: Order these by photocatalytic hydrogen evolution rate, descending, and give the full ranking. Give the labels in the order requested.
Response: d, c, e, a, b

###

assay: photocatalytic hydrogen evolution rate (per 5 mg catalyst); higher = more photocatalytic H2 evolution; extreme values may be limits of the assay; details: catalyst mass (mg): 5; Pt cocatalyst (wt%): 3; sacrificial medium: triethylamine/methanol/water 1:1:1
Observed property: photocatalytic hydrogen evolution rate (µmol/h)

Example compounds with recorded photocatalytic hydrogen evolution rate:
>  <Entry smiles>
O=C(/C=C/c1ccccc1)c1ccccc1

>  <Observed property>
photocatalytic hydrogen evolution rate

>  <Display unit>
µmol/h

>  <Test result>
0.146

$$$$
>  <Entry smiles>
N#Cc1c(Cl)c(Cl)c(C#N)c(Cl)c1Cl

>  <Observed property>
photocatalytic hydrogen evolution rate

>  <Display unit>
µmol/h

>  <Test result>
1.44

$$$$
>  <Entry smiles>
N#Cc1ccc(Br)cn1

>  <Observed property>
photocatalytic hydrogen evolution rate

>  <Display unit>
µmol/h

>  <Test result>
0

$$$$
>  <Entry smiles>
COC(=O)c1ccc(-c2ccc(Br)cc2)cc1

>  <Observed property>
photocatalytic hydrogen evolution rate

>  <Display unit>
µmol/h

>  <Test result>
0.0357

$$$$
>  <Entry smiles>
O=C1CCc2ccccc21

>  <Observed property>
photocatalytic hydrogen evolution rate

>  <Display unit>
µmol/h

>  <Test result>
0.101

$$$$
>  <Entry smiles>
N#Cc1ccc(-c2ccccc2C#N)cc1

>  <Observed property>
photocatalytic hydrogen evolution rate

>  <Display unit>
µmol/h

>  <Test result>
0

$$$$

(1) N#Cc1nc2c3nc(C#N)c(C#N)nc3c3nc(C#N)c(C#N)nc3c2nc1C#N
(2) O=Cc1cccc(-c2c(O)ccc3ccccc23)c1
Request: Hey, which is lower on measured photocatalytic hydrogen evolution rate, 1 or 2 ? Choose, then provide that item's label.
Response: 1

(I) c1ccc(N=C(Nc2ccccc2)Nc2ccccc2)cc1
(II) c1ccc(-c2c3ccccc3c(-c3ccccc3)c3c(-c4ccccc4)c4ccccc4c(-c4ccccc4)c23)cc1
Request: Could you please tell me which of these two has the higher photocatalytic hydrogen evolution rate: I or II ? Choose, then provide that item's label.
Response: II
(II: 0.0539 µmol/h, I: 0 µmol/h)

###

assay: photocatalytic hydrogen evolution rate (per 5 mg catalyst); higher = more photocatalytic H2 evolution; extreme values may be limits of the assay; settings: catalyst mass (mg): 5; Pt cocatalyst (wt%): 3; sacrificial medium: triethylamine/methanol/water 1:1:1
Observed property: photocatalytic hydrogen evolution rate (µmol/h)

>  <Entry smiles>
N#Cc1ncccc1Br

>  <Display unit>
µmol/h

>  <photocatalytic hydrogen evolution rate>
0

$$$$
>  <Entry smiles>
O=Cc1sc(Br)nc1Br

>  <Display unit>
µmol/h

>  <photocatalytic hydrogen evolution rate>
0

$$$$

(A) COC(=O)c1cccc(C(=O)OC)n1
(B) N#CCc1ccccc1-c1ccccc1CC#N
(C) Cc1cc(N)ccc1-c1ccc(N)cc1C
Request: Order these by photocatalytic hydrogen evolution rate, descending, and give the full ranking. Give the labels in the order requested.
Response: C, A, B
(C: 0.055 µmol/h, A: 0.0266 µmol/h, B: 0 µmol/h)

(P) N#Cc1cccc(N)c1
(Q) O=c1c2ccccc2sc2ccccc12
Request: Hey, which is lower on measured photocatalytic hydrogen evolution rate, P or Q ? Choose, then provide that item's label.
Response: P

###

assay: photocatalytic hydrogen evolution rate (per 5 mg catalyst); higher = more photocatalytic H2 evolution; extreme values may be limits of the assay; details: catalyst mass (mg): 5; Pt cocatalyst (wt%): 3; sacrificial medium: triethylamine/methanol/water 1:1:1
Observed property: photocatalytic hydrogen evolution rate (µmol/h)

Example compounds with recorded photocatalytic hydrogen evolution rate:
>  <Compound>
O=[N+]([O-])c1ccc(C(=C(c2ccc([N+](=O)[O-])cc2)c2ccc([N+](=O)[O-])cc2)c2ccc([N+](=O)[O-])cc2)cc1

>  <Display unit>
µmol/h

>  <photocatalytic hydrogen evolution rate>
0

$$$$
>  <Compound>
OB(O)c1cccc(B(O)O)c1

>  <Display unit>
µmol/h

>  <photocatalytic hydrogen evolution rate>
0

$$$$
>  <Compound>
O=Cc1ccc(-c2ccccc2)cc1

>  <Display unit>
µmol/h

>  <photocatalytic hydrogen evolution rate>
4.67

$$$$
>  <Compound>
c1ccc2ccccc2c1

>  <Display unit>
µmol/h

>  <photocatalytic hydrogen evolution rate>
0

$$$$
>  <Compound>
N#CC(C#N)=C1CC(=C(C#N)C#N)c2ccccc21

>  <Display unit>
µmol/h

>  <photocatalytic hydrogen evolution rate>
0

$$$$
>  <Compound>
C1=CSC(=C2SC=CS2)S1

>  <Display unit>
µmol/h

>  <photocatalytic hydrogen evolution rate>
0

$$$$
>  <Compound>
Oc1c(Br)c(O)c(Br)c(O)c1Br

>  <Display unit>
µmol/h

>  <photocatalytic hydrogen evolution rate>
0

$$$$
>  <Compound>
COc1cc(C=O)cc(OC)c1

>  <Display unit>
µmol/h

>  <photocatalytic hydrogen evolution rate>
5.78

$$$$

(1) C#Cc1ccc(N)cc1
(2) O=C(O)c1cc(C(=O)O)cc(-c2ccc(-c3cc(C(=O)O)cc(C(=O)O)c3)cc2)c1
(3) N#Cc1ccc(/C=C/c2ccc(/C=C/c3ccc(C#N)cc3)cc2)cc1
(4) O=Cc1cc(Br)ccc1Br
(5) Nc1ccc(S(=O)(=O)c2ccc(N)cc2)cc1
Request: Order these by photocatalytic hydrogen evolution rate, descending, and give the full ranking. Give the labels in the order requested.
Response: 4, 3, 2, 5, 1

###

assay: photocatalytic hydrogen evolution rate (per 5 mg catalyst); higher = more photocatalytic H2 evolution; extreme values may be limits of the assay; conditions: catalyst mass (mg): 5; Pt cocatalyst (wt%): 3; sacrificial medium: triethylamine/methanol/water 1:1:1
Observed property: photocatalytic hydrogen evolution rate (µmol/h)

>  <Entry smiles>
CCOC(=O)c1ccc(C(=O)OCC)cc1

>  <photocatalytic hydrogen evolution rate, µmol/h>
0

$$$$
>  <Entry smiles>
O=Cc1cc(Br)ccc1O

>  <photocatalytic hydrogen evolution rate, µmol/h>
10.5

$$$$
>  <Entry smiles>
N#Cc1cc(N)cc(Cl)c1

>  <photocatalytic hydrogen evolution rate, µmol/h>
0.000715

$$$$

(P) N#Cc1c(F)c(F)c(F)c(C#N)c1F
(Q) N#Cc1c(F)c(F)c(Br)c(F)c1F
Request: Could you please tell me which of these two has the higher photocatalytic hydrogen evolution rate: P or Q ? Choose, then provide that item's label.
Response: P

(A) N#CCc1ccc(Cl)nc1
(B) Nc1nnc(Br)cc1Br
(C) Fc1c(F)c(Br)c2nsnc2c1Br
(D) c1ccc(-c2nc(-c3ccccc3)nc(-c3ccccc3)n2)cc1
(E) COC(=O)c1ccc2cc(B3OC(C)(C)C(C)(C)O3)ccc2c1
Request: In this exercise, place the 5 molecules in ascending sequence of their recorded photocatalytic hydrogen evolution rate. Give the labels in the order requested.
Response: A, B, D, E, C
(A: 0 µmol/h, B: 0.0148 µmol/h, D: 0.0789 µmol/h, E: 1.49 µmol/h, C: 2.63 µmol/h)

(1) c1csc(-c2ccc(N(c3ccc(-c4cccs4)cc3)c3ccc(-c4cccs4)cc3)cc2)c1
(2) CC1(C)OB(c2ccc3c4ccc(B5OC(C)(C)C(C)(C)O5)cc4n(-c4ccccc4)c3c2)OC1(C)C
Request: Hey, which is lower on measured photocatalytic hydrogen evolution rate, 1 or 2 ? Choose, then provide that item's label.
Response: 1
